TARGET_OR_SYSTEM: Human L1CAM (purified protein) (human) (UniProt P32004)
MEASUREMENT_DESCRIPTION: BLI, Octet RED384; antibody captured on AHC sensor, human L1CAM 50-0.78 nM as analyte
VALUE_KIND: Kd (nM)
Write it as a number; the unit nM goes unstated.

[
  {
    "BINDER": "Ab4H5 antibody (antibody, human IgG1, kappa, V domains shown, Whole human IgG1, kappa; also called Anti-L1CAM (\"Ab4H5\"); Ab4H5 mutant) VH: EVQLVESGGGVVQPGGSLRLSCAASGFTFSRFGMHWVRQAPGKGLEWVAFISNEGSNKYYADSVKGRFTISRDNSANTLYLQMNSLRAEDTAVYYCARGRAYGSGSLFDPWGQGTLVTVSS VL: DIQLTQSPSSLSASVGDRVTITCRASRTISSYVNWYRQRPGKAPESLIYAASNLHSGVPSRFSGSGSGTDFTLTISSLQPEDFATYYCQQAGFYTPWTFGQGTKLEIKR",
    "VALUE_KIND": "Kd",
    "RECORDED_VALUE": 0.00822
  }
]

Next item in the queue.
stdin: Name the reported Kd value associated with the binder Ab5D12 antibody (antibody, human IgG1, kappa, V domains shown, Whole human IgG1, kappa; also called Anti-L1CAM ("Ab5D12"); Ab5D12 mutant) VH: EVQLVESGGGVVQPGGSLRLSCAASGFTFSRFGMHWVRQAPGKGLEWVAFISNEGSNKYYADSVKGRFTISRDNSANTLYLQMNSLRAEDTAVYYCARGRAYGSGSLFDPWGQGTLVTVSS VL: DIQLTQSPSSLSASVGDRVTITCRASRTISSYVNWYRQRPGKAPESLIYAASNLHSGVPSRFSGSGSGTDFTLTISSLQPEDFATYYCQQSLVWYPWTFGQGTKLEIKR
stdout: 0.096
